molecular target: T1, human PD-L1 on CHO cells (human, UniProt Q9NZQ7 19-290); assay: flow cytometry, CHO/PD-L1 cells; MFI relative to WT CD80
T1 construct: whole, on cells; CHO cells stably expressing PD-L1; also called huPD-L1
T1 sequence (Q9NZQ7 19-290): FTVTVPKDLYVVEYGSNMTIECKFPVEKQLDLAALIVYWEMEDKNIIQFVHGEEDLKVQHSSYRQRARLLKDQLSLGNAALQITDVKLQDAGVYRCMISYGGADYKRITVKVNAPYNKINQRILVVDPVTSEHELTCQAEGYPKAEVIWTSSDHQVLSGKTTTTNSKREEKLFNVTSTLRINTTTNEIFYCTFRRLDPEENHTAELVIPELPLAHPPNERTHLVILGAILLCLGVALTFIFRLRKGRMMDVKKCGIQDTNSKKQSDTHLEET
metric: Fold change to WT CD80 (fold)

P. variant CD80 IgV-Fc H18Y/E35D/M47L/A71G/A91S (Fc fusion, not shown: a dimerising Fc or GST) VIHVTKEVKEVATLSCGYNVSVEELAQTRIYWQKDKKMVLTMMSGDLNIWPEYKNRTIFDITNNLSIVILGLRPSDEGTYECVVLKYEKDSFKREHLAEVTLSVKAD
Q. variant CD80 IgV-Fc E35D/D46E/A91G (Fc fusion, not shown: a dimerising Fc or GST) VIHVTKEVKEVATLSCGHNVSVEELAQTRIYWQKDKKMVLTMMSGEMNIWPEYKNRTIFDITNNLSIVILALRPSDEGTYECVVLKYEKDGFKREHLAEVTLSVKAD
Dear colleague, could you let me know whether P or Q has the lower recorded Fold change to WT CD80? Thanks. Answer by stating the label of the chosen item.
Q
(Q: 40.1 fold, P: 108 fold)

a. variant CD80 IgV-Fc E35D/D46E/L85M (Fc fusion, not shown: a dimerising Fc or GST) VIHVTKEVKEVATLSCGHNVSVEELAQTRIYWQKDKKMVLTMMSGEMNIWPEYKNRTIFDITNNLSIVILALRPSDEGTYECVVMKYEKDAFKREHLAEVTLSVKAD
b. variant CD80 IgV-Fc E35D/M43I/D46E/A71G/L85M (Fc fusion, not shown: a dimerising Fc or GST) VIHVTKEVKEVATLSCGHNVSVEELAQTRIYWQKDKKMVLTMISGEMNIWPEYKNRTIFDITNNLSIVILGLRPSDEGTYECVVMKYEKDAFKREHLAEVTLSVKAD
Dear colleague, could you let me know whether a or b has the lower recorded Fold change to WT CD80? Thanks. Answer by stating the label of the chosen item.
a

I. variant CD80 IgV-Fc E35D/D46E/M47I (Fc fusion, not shown: a dimerising Fc or GST) VIHVTKEVKEVATLSCGHNVSVEELAQTRIYWQKDKKMVLTMMSGEINIWPEYKNRTIFDITNNLSIVILALRPSDEGTYECVVLKYEKDAFKREHLAEVTLSVKAD
II. variant CD80 IgV-Fc E35D/M47I/N48K/I61F (Fc fusion, not shown: a dimerising Fc or GST) VIHVTKEVKEVATLSCGHNVSVEELAQTRIYWQKDKKMVLTMMSGDIKIWPEYKNRTIFDFTNNLSIVILALRPSDEGTYECVVLKYEKDAFKREHLAEVTLSVKAD
Dear colleague, could you let me know whether I or II has the lower recorded Fold change to WT CD80? Thanks. Answer by stating the label of the chosen item.
I
(I: 53.9 fold, II: 80 fold)

I. variant CD80 IgV-Fc E35D/M47L/A71G/L85M (Fc fusion, not shown: a dimerising Fc or GST) VIHVTKEVKEVATLSCGHNVSVEELAQTRIYWQKDKKMVLTMMSGDLNIWPEYKNRTIFDITNNLSIVILGLRPSDEGTYECVVMKYEKDAFKREHLAEVTLSVKAD
II. variant CD80 IgV-Fc E35D/D46E (Fc fusion, not shown: a dimerising Fc or GST) VIHVTKEVKEVATLSCGHNVSVEELAQTRIYWQKDKKMVLTMMSGEMNIWPEYKNRTIFDITNNLSIVILALRPSDEGTYECVVLKYEKDAFKREHLAEVTLSVKAD
Dear colleague, could you let me know whether I or II has the lower recorded Fold change to WT CD80? Thanks. Answer by stating the label of the chosen item.
II
